// data source = patent US8809352B2

Target: BCL2 (Homo sapiens)
Lab note: cut-off is 0.1 µM. Strictly less in IC50 is Met. Exactly 0.1 µM or more is Not met.

IN: API: query returns whether the molecule falls strictly under 0.1 µM in IC50. Query: [2H]C1(N2CCc3c(ncnc3NS(=O)(=O)c3ccc(N[C@H](CCN4CCOCC4)CSc4ccccc4)c(S(=O)(=O)C(F)(F)F)c3)C2)CCN(C(C)C2=C(c3ccc(Cl)cc3)CC(C)(C)CC2)CC1 (some centres unmarked)
OUT: Not met

IN: I wonder whether `O=[N+]([O-])c1cc(S(=O)(=O)Nc2ncnc3c2CCN(C2CCN(Cc4ccccc4-c4ccc(Cl)cc4)CC2)C3)ccc1N[C@H](CCN1CCOCC1)CSc1ccccc1` has IC50 below 0.1 µM. Can you tell?
OUT: Met

IN: In the record for `CN(C)CC[C@H](CSc1ccccc1)Nc1ccc(S(=O)(=O)Nc2nc(Cl)nc3c2CCN(C2CCN(Cc4ccccc4-c4ccc(Cl)cc4)CC2)C3)cc1S(=O)(=O)C(F)(F)F` , is IC50 less than 0.1 µM?
OUT: Met

IN: Does COC1(Cc2ccccc2Br)CCC(N2CCc3c(ncnc3NS(=O)(=O)c3ccc(N[C@H](CCN(C)C)CSc4ccccc4)c(S(=O)(=O)C(F)(F)F)c3)C2)CC1 (some centres unmarked) have IC50 strictly under 0.1 µM?
OUT: Not met

IN: Hello, is IC50 of the following molecule strictly smaller than 0.1 µM? `[2H]C1(N2CCc3c(ncnc3NS(=O)(=O)c3ccc(N[C@H](CCN4CCCC4)CSc4ccccc4)c(S(=O)(=O)C(F)(F)F)c3)C2)CCN(Cc2cc(F)ccc2-c2ccc(Cl)cc2)CC1`
OUT: Not met

----------
MEASURED_QUANTITY: IC50
Note to self: number, then unit, no commentary.

IN: Consider the compound `O=S(=O)(Nc1ncnc2c1CN(C1CCN(Cc3ccccc3-c3ccc(Cl)cc3)CC1)C2)c1ccc(N[C@H](CCN2CCOCC2)CSc2ccccc2)c(S(=O)(=O)C(F)(F)F)c1` tested on BCL2 (Homo sapiens); state its IC50.
OUT: 971 nM

IN: Provide IC50, recorded with BCL2 (Homo sapiens), of CC(c1ccccc1-c1ccc(Cl)cc1)N1CCC(N2CCc3c(ncnc3NS(=O)(=O)c3ccc(N[C@H](CCN4CCOCC4)CSc4ccccc4)c(S(=O)(=O)C(F)(F)F)c3)C2)CC1 (some centres unmarked)
OUT: 97 nM

IN: Report value: IC50, system: BCL2 (Homo sapiens), compound: O=S(=O)(Nc1ncnc2c1CCN(C1CCN(Cc3ccccc3-c3ccc(Cl)cc3)CC1F)C2)c1ccc(N[C@H](CCN2CCOCC2)CSc2ccccc2)c(S(=O)(=O)C(F)(F)F)c1 (some centres unmarked)
OUT: 181 nM

IN: Quote BCL2 (Homo sapiens) IC50 for entry `[2H]C1(N2CCc3c(ncnc3NS(=O)(=O)c3ccc(N[C@H](CCN(C)C(C)C)CSc4ccccc4)c(S(=O)(=O)C(F)(F)F)c3)C2)CCN(Cc2cc(F)ccc2-c2ccc(Cl)cc2)CC1` .
OUT: 73 nM

IN: System BCL2 (Homo sapiens). Read-out IC50. Item `[2H]C1(N2CCc3c(ncnc3NS(=O)(=O)c3ccc(N[C@H](CCN4CCN(CC)CC4)CSc4ccccc4)c(S(=O)(=O)C(F)(F)F)c3)C2)CCN(Cc2cc(F)ccc2-c2ccc(Cl)cc2)CC1` . Report value.
OUT: 35 nM

----------
MEASURED_QUANTITY: IC50 (nM)
// units = nM; emit number, no label

IN: Quote IC50 with test system BCL2 (Homo sapiens, UniProt P10415) for `CN(C)CC[C@H](CSc1ccccc1)Nc1ccc(S(=O)(=O)Nc2ncnc3c2CCN(C2CCN(Cc4ccccc4-c4ccc(Cl)cc4)CC2)C3)cc1[N+](=O)[O-]`
OUT: 100

IN: Check BCL2 (Homo sapiens, UniProt P10415) data and give IC50 for `CN(C)CC[C@H](CSc1ccccc1)Nc1ccc(S(=O)(=O)Nc2ncnc3c2CCN(C2CCN(CC4=C(c5ccc(Cl)cc5)CC(C)(C)CC4)CC2)C3)cc1S(=O)(=O)C(F)(F)F` .
OUT: 22

IN: Report the value of IC50 obtained on BCL2 (Homo sapiens, UniProt P10415) for `CN(C)CC[C@H](CSc1ccccc1Cl)Nc1ccc(S(=O)(=O)Nc2ncnc3c2CCN(C2CCN(CC4=C(c5ccc(Cl)cc5)CC(C)(C)CC4)CC2)C3)cc1S(=O)(=O)C(F)(F)F` .
Sequence (P10415 whole entry): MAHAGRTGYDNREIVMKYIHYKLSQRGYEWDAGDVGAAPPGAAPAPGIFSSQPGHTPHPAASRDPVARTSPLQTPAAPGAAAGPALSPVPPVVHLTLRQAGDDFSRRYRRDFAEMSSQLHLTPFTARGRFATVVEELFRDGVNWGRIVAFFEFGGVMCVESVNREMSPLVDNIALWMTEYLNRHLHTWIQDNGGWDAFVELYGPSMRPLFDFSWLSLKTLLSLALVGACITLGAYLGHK
OUT: 44

IN: Fetch value of IC50 on BCL2 (Homo sapiens, UniProt P10415) for `CC#CCOc1ccccc1CN1CCC(N2CCc3c(ncnc3NS(=O)(=O)c3ccc(N[C@H](CCN(C)C)CSc4ccccc4)c(S(=O)(=O)C(F)(F)F)c3)C2)CC1` .
OUT: 1770

IN: # return IC50 for `[2H]C1(N2CCc3c(ncnc3NS(=O)(=O)c3ccc(N[C@H](CCN(C)C)CSc4ccccc4)c(S(=O)(=O)C(F)(F)F)c3)C2)CCN(Cc2cc(F)ccc2-c2ccc(Cl)cc2)CC1` , test system: BCL2 (Homo sapiens, UniProt P10415)
OUT: 26
